Attribution: ChEMBL document CHEMBL1144013

molecular target: UniProt:P34972; assay: Agonist activity at human recombinant CB2 receptor expressed in HEK cells assessed as calcium mobilization by FLIPR
Catalogue of molecules with associated EC50
Answer format: numeric, nM implied, no suffix.

Sample `CC1(C)C(C(=O)c2cn(CCN3CCOCC3)c3cccc(N)c23)C1(C)C` — what was its EC50?
50

* * *

target: Cannabinoid receptor 2 (Homo sapiens); experiment: Displacement of [3H]CP-55940 from human recombinant CB2 receptor expressed in HEK cells; assay type: cell-based, HEK293; details: read-out: Ki
Sequence (P34972 whole entry): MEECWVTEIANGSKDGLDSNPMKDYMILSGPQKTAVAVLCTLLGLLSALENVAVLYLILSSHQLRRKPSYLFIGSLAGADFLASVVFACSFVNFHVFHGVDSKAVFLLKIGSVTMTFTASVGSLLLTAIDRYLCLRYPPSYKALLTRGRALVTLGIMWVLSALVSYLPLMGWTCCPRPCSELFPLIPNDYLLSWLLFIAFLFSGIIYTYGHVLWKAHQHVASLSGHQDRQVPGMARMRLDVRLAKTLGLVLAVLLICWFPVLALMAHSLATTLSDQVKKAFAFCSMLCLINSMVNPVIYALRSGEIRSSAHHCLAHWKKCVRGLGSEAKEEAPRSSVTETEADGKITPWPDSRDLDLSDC
Catalogue of compounds with associated Ki
Answer format: numeric, nM implied, no suffix.

SMILES_NOTATION | Ki [nM]
COCc1ccc2c(c1)c(C(=O)C1C(C)(C)C1(C)C)cn2CC1CCOCC1 | 26
Cc1ccc2c(C(=O)C3C(C)(C)C3(C)C)cn(CC3CCOCC3)c2c1 | 0.15
CC1(C)C(C(=O)c2cn(CC3CCOCC3)c3c(O)cccc23)C1(C)C | 3.2

Sample `CC1(C)C(C(=O)c2cn(CC3CCOCC3)c3ccc(O)cc23)C1(C)C` — what was its Ki?
1.9

Sample `CC1(C)C(C(=O)c2cn(CC3CCOCC3)c3ccc(Br)cc23)C1(C)C` — what was its Ki?
6.6

Sample `CC1(C)C(C(=O)c2cn(CCN3CCOCC3)c3cc(O)ccc23)C1(C)C` — what was its Ki?
109

* * *

Catalogue of molecules with associated Ratio Ki
species: Homo sapiens; assay: Selectivity for human recombinant CB2 receptor over human recombinant CB1 receptor

SMILES_NOTATION | Ratio Ki
CC1(C)C(C(=O)c2cn(CCN3CCOCC3)c3cccc([N+](=O)[O-])c23)C1(C)C | > 34
Cc1c(C(=O)C2C(C)(C)C2(C)C)c2ccccc2n1CCN1CCOCC1 | > 370
CC1(C)C(C(=O)c2cn(CCN3CCOCC3)c3cc(O)ccc23)C1(C)C | > 92
CC1(C)C(C(=O)c2cn(CC3CCOCC3)c3cccc(OCc4ccccc4)c23)C1(C)C | > 1080
CC1(C)C(C(=O)c2cn(CC3CCOCC3)c3cc(CN)ccc23)C1(C)C | > 16

Sample `COc1ccc2c(c1)c(C(=O)C1C(C)(C)C1(C)C)cn2CCN1CCOCC1` — what was its Ratio Ki?
> 15

Sample `CC1(C)C(C(=O)c2cn(CC3CCOCC3)c3ccc(OCCCCO)cc23)C1(C)C` — what was its Ratio Ki?
> 38

Sample `CC1(C)C(C(=O)c2cn(CCN3CCOCC3)c3cccc(N)c23)C1(C)C` — what was its Ratio Ki?
> 109

Sample `CC1(C)C(C(=O)c2cn(CC3CCOCC3)c3cc(O)ccc23)C1(C)C` — what was its Ratio Ki?
> 353

Sample `CC1(C)C(C(=O)c2cn(CC3CCOCC3)c3ccc(CO)cc23)C1(C)C` — what was its Ratio Ki?
> 88

* * *

species on record: Homo sapiens; test: Selectivity for human recombinant CB2 receptor over human recombinant CB1 receptor
Catalogue of molecules with associated Ratio Ki

Example entries begin here.
SMILES_NOTATION | Ratio Ki
CC1(C)C(C(=O)c2cn(CCN3CCOCC3)c3ccc(O)cc23)C1(C)C | > 109
CC1(C)C(C(=O)c2cn(CC3CCOCC3)c3ccc(Br)cc23)C1(C)C | 292
COC(=O)c1ccc2c(c1)c(C(=O)C1C(C)(C)C1(C)C)cn2CC1CCOCC1 | > 42

Let us examine a further case.
Sample `CC1(C)C(C(=O)c2cn(CC3CCOCC3)c3ccc(OCCCCBr)cc23)C1(C)C` — what was its Ratio Ki?
> 139
